TEST_PROTOCOL: NCI Yeast Anticancer Drug Screen. Data for the wt1 strain (AID 149)
CONDITION_SUMMARY: S. cerevisiae wt1 strain (SPY 50644) growth inhibition; at 100.0 µM
Compounds without any hit were thinned out: in the full panel of roughly 79,000, 15% have a hit. Activity calls are given as the source filed them. No stated cut-off is given here; in the data, active means growth inhibition above about 70%; inactive means the rest.
Respond only with the outcome that fits, drawn from YES (active), NO (inactive)

Q: Give the logged outcome of this assay for the following compound: CCN(CC)C(=S)N/N=C(\C)c1ccccc1O
Result: YES

Q: Give the logged outcome of this assay for the following compound: CCCCCCCCCC(=O)N(CCC)CCC
Result: YES

Q: Give the logged outcome of this assay for the following compound: CC(C)CCC[C@@H](C)[C@H]1CC[C@H]2[C@@H]3CC[C@H]4C[C@H](N)CC[C@]4(C)[C@H]3CC[C@]12C
Result: NO

Q: Give the logged outcome of this assay for the following compound: CCCNCC(=O)O[C@]1(CC)C(=O)OCc2c1cc1n(c2=O)Cc2cc3ccccc3nc2-1
Result: YES

Q: Give the logged outcome of this assay for the following compound: CCCCCCCCNCCCCCCCC
Result: YES

Q: Give the logged outcome of this assay for the following compound: O=[N+]([O-])c1cc[n+]([O-])c(Cl)c1
Result: YES

Q: Give the logged outcome of this assay for the following compound: COc1c2c(c3c(c1CCC(=O)O)OC(C)(C)C=C3)OC(C)(C)C=C2
Result: YES

Q: Give the logged outcome of this assay for the following compound: CCN(CC)CCNc1ccc2nc(C)n3c4ccc(O)cc4c(=O)c1c23
Result: NO

Q: Give the logged outcome of this assay for the following compound: Nc1cc2ccccc2cc1N
Result: NO

Q: Give the logged outcome of this assay for the following compound: CC(C)OP(=O)(OC(C)C)C(=NCCO)NNc1ccc([N+](=O)[O-])cc1
Result: NO

Q: Give the logged outcome of this assay for the following compound: O=C1c2ccccc2C(=O)c2c(O)c(NCCNCCO)cc(O)c21
Result: YES

Q: Give the logged outcome of this assay for the following compound: CCCCCCCC/C=C\CCCCCCCCN
Result: YES

Q: Give the logged outcome of this assay for the following compound: CC(C)OP(=O)(OC(C)C)/C(Cl)=N/Nc1ccc([N+](=O)[O-])cc1
Result: YES

Q: Give the logged outcome of this assay for the following compound: O=C(C#Cc1ccccc1)/C=C/c1ccccc1
Result: YES

Q: Give the logged outcome of this assay for the following compound: NC(CS)C(=O)NCCNc1ccc(NCCNC(=O)C(N)CS)c2c1C(=O)c1c(O)ccc(O)c1C2=O (centres undefined)
Result: NO

Q: Give the logged outcome of this assay for the following compound: O=C(NNc1ccccc1)C(CCCCNS(=O)(=O)Cc1ccccc1)NS(=O)(=O)Cc1ccccc1 (centres undefined)
Result: NO

Q: Give the logged outcome of this assay for the following compound: O=C1C(=C2CCCC2)CCC1CN1CCCCC1 (centres undefined)
Result: YES

Q: Give the logged outcome of this assay for the following compound: c1ccc([P+](CCN2Cc3ccccc3C2)(c2ccccc2)c2ccccc2)cc1
Result: YES

Q: Give the logged outcome of this assay for the following compound: CCCC/C=C1\CCC(CN2CCCC2)C1=O (centres undefined)
Result: NO

Q: Give the logged outcome of this assay for the following compound: O=C(O)CNC(c1ccccc1)(c1ccccc1)c1ccccc1
Result: YES

Q: Give the logged outcome of this assay for the following compound: Cc1cc(C)c2[s+]snc2c1
Result: NO

Q: Give the logged outcome of this assay for the following compound: O=C(Cc1ccccc1)NNc1nc(NNC(=O)c2ccncc2)nc(Nc2ccc(Cl)cc2)n1
Result: NO

Q: Give the logged outcome of this assay for the following compound: CCC(C)COC(=O)Nc1cccc(Cl)c1 (centres undefined)
Result: YES

Q: Give the logged outcome of this assay for the following compound: O=C(NOC(=O)c1ccc([N+](=O)[O-])cc1)c1ccc(Cl)cc1
Result: YES
